Tested on: Alopecurus myosuroides (ALOMY)
Test: Glasshouse assay for herbicidal activity (pre- and post-emergence), percentage phytotoxicity
Format: in vivo
Conditions: Alopecurus myosuroides, pre-emergence, 480 h, Rate 250 g/ha; pre-emergence; visual assessment 20 DAA; 100%=total damage, 0%=no damage; read-out: Pre-emergence herbicidal activity (percentage phytotoxicity) ALOMY PRE
Assignment: determine reported pest or weed control at 250 g/ha for the given molecules.
Only the number, expressed in %, is required.

Record for C=C(C)CNC(=O)CC1CC(=O)C(c2c(C)cc(-c3ncc(Cl)cn3)cc2C)C1=O (stereo not shown) [Compound B341] under target or system Alopecurus myosuroides (ALOMY): pest or weed control at 250 g/ha reported as 100

Record for C=CCNC(=O)CC1CC(=O)C(c2c(C)cc(-c3ccc(Cl)cn3)cc2C)C1=O (stereo not shown) [Compound B370] under target or system Alopecurus myosuroides (ALOMY): pest or weed control at 250 g/ha reported as 100

Record for C=CC(C)NC(=O)CC1CC(=O)C(c2c(C)cc(-c3ccc(Cl)cn3)cc2C)C1=O (stereo not shown) [Compound B365] under target or system Alopecurus myosuroides (ALOMY): pest or weed control at 250 g/ha reported as 100

Record for Cc1cc(-c2ncc(Cl)cn2)cc(C)c1C1=C(OC(=O)N2CCCC2)C(CC(=O)NC(C)(C)C)CC1=O (stereo not shown) [Compound P7] under target or system Alopecurus myosuroides (ALOMY): pest or weed control at 250 g/ha reported as 0

----------
Assignment: determine reported pest or weed control at 250 g/ha for the given molecules.
System: Lolium perenne (LOLPE)
Assay: Glasshouse assay for herbicidal activity (pre- and post-emergence), percentage phytotoxicity
Type: in vivo
Settings: Lolium perenne, post-emergence, 360 h, POST-emergence, rate 250 g/ha, visual score 15 DAA (100%=total damage, 0%=no damage); read-out: Post-emergence herbicidal activity (percentage phytotoxicity) LOLPE POST
Only the number, expressed in %, is required.

Record for C/C=C/CNC(=O)CC1CC(=O)C(c2c(C)cc(-c3ncc(F)cn3)cc2C)C1=O (centres unmarked) under target or system Lolium perenne (LOLPE): pest or weed control at 250 g/ha reported as 100

Record for COCC(C)(C)NC(=O)CC1CC(=O)C(c2c(C)cc(-c3ncc(Cl)cc3F)cc2C)C1=O (centres unmarked) under target or system Lolium perenne (LOLPE): pest or weed control at 250 g/ha reported as 100

Record for Cc1cc(OCC(F)(F)F)cc(C)c1C1C(=O)CC(CC(=O)NC(C)C)C1=O (centres unmarked) under target or system Lolium perenne (LOLPE): pest or weed control at 250 g/ha reported as 90

Record for CCN(C)C(=O)CC1CC(=O)C(c2c(C)cc(-n3cc(Cl)cn3)cc2C)C1=O (centres unmarked) under target or system Lolium perenne (LOLPE): pest or weed control at 250 g/ha reported as 100

Record for CCc1cc(OCC(F)(F)F)cc(C)c1C1C(=O)CC(CC(=O)NCC2CC2)C1=O (centres unmarked) under target or system Lolium perenne (LOLPE): pest or weed control at 250 g/ha reported as 100

Record for CC#Cc1cc(C)c(C2C(=O)CC(CC(N)=O)C2=O)c(C)c1 (centres unmarked) under target or system Lolium perenne (LOLPE): pest or weed control at 250 g/ha reported as 100

Record for CCc1cc(C)cc(C)c1C1C(=O)CC(CC(N)=O)C1=O (centres unmarked) under target or system Lolium perenne (LOLPE): pest or weed control at 250 g/ha reported as 90

Record for C=CCNC(=O)CC1CC(=O)C(c2c(C)cc(OCC(F)(F)F)cc2CC)C1=O (centres unmarked) under target or system Lolium perenne (LOLPE): pest or weed control at 250 g/ha reported as 100
